# assay.comment: Potentiometric pH titrations, Hyperquad model
# experimental.parameters: Hyperquad model, 100 mM KCl, 25° C.
What log(β) was measured for each of the following?

[[record]]
compound = "Oc1ccc(O)c(CN(CCN(Cc2ccccn2)Cc2cc(O)ccc2O)Cc2ccccn2)c1 [Complex H4qtp2]"
test_value = 0.00


Hi there! I need log(β) for each item below, if you can.
1. Oc1ccc(O)c(CN(CCN(Cc2ccccn2)Cc2cc(O)ccc2O)Cc2ccccn2)c1 [H5qtp2^+]
2. Oc1ccc2c(c1)CN(Cc1ccccn1)CCN(Cc1ccccn1)Cc1cc(O)ccc1[O][Mn][O]2 [[Mn(H2qtp2)]]
3. Oc1ccc(O)c(CN(CCN(Cc2ccccn2)Cc2cc(O)ccc2O)Cc2ccccn2)c1 [H6qtp2^2+]

Result ::
1: 7.18 (±0.03); 2: −7.19 (±0.01); 3: 11.65 (±0.05)
